Data provenance: the supplement of paper PMC10307832

System: EKVX
Experiment: relative viability (nuclei count vs DMSO), 5 days (fraction); higher = more cells survive
Details: first compound 4 µM
MEASURED METRIC: relative viability
Answer field: number only, no words.

Exercise: Need relative viability, item Clc1ccc(Nc2nnc(Cc3ccncc3)c3ccccc23)cc1 [Vatalanib] + NC(=O)Nc1cc(-c2cccc(F)c2)sc1C(=O)N[C@H]1CCCNC1 [AZD7762] (partner 0.2 µM)
Key: 0.64

Exercise: Please do the same for Clc1ccc(Nc2nnc(Cc3ccncc3)c3ccccc23)cc1 [Vatalanib] + Nc1ncn([C@H]2C[C@H](O)[C@@H](CO)O2)c(=O)n1 [Decitabine] (partner 2 µM) as well.
Key: 0.296

Exercise: Same again, this time with C[C@@H]1CN(CC(=O)Nc2ccc3c(c2)Cc2cccc(-c4cc(=O)cc(N5CCOCC5)o4)c2S3)C[C@H](C)O1 + NC(=O)Nc1cc(-c2cccc(F)c2)sc1C(=O)N[C@H]1CCCNC1 [AZD7762] (partner 0.2 µM)
Key: 0.562

Exercise: Please answer likewise for COc1cc(N2CCC(C(N)=O)CC2)ccc1Nc1nc(N)c(Cl)c(Nc2ccccc2S(=O)(=O)C(C)C)n1 [HG-5-88-01] + C[C@@H](Oc1cc(-c2cnn(C3CCNCC3)c2)cnc1N)c1c(Cl)ccc(F)c1Cl [Crizotinib] (partner 1 µM)
Key: 0.843

Exercise: Can you check C[C@@H]1CN(CC(=O)Nc2ccc3c(c2)Cc2cccc(-c4cc(=O)cc(N5CCOCC5)o4)c2S3)C[C@H](C)O1 + C[C@]1(O)C[C@@H](c2nc(-c3ccc4ccc(-c5ccccc5)nc4c3)c3c(N)nccn32)C1 [Linsitinib] (partner 1 µM) next?
Key: 0.972

Exercise: Can you handle Clc1ccc(Nc2nnc(Cc3ccncc3)c3ccccc23)cc1 [Vatalanib] + N=C(N)NC(=N)NCCc1ccccc1 [Phenformin] (partner 250 µM) next?
Key: 0.212

Exercise: Thanks! And Clc1ccc(Nc2nnc(Cc3ccncc3)c3ccccc23)cc1 [Vatalanib] + C[C@]1(O)C[C@@H](c2nc(-c3ccc4ccc(-c5ccccc5)nc4c3)c3c(N)nccn32)C1 [Linsitinib] (partner 1 µM) ?
Key: 0.776

Exercise: Now the same for COc1cc(N2CCC(C(N)=O)CC2)ccc1Nc1nc(N)c(Cl)c(Nc2ccccc2S(=O)(=O)C(C)C)n1 [HG-5-88-01] + NC(=O)Nc1cc(-c2cccc(F)c2)sc1C(=O)N[C@H]1CCCNC1 [AZD7762] (partner 0.2 µM)
Key: 0.527

Exercise: Same for COc1cc(N2CCC(C(N)=O)CC2)ccc1Nc1nc(N)c(Cl)c(Nc2ccccc2S(=O)(=O)C(C)C)n1 [HG-5-88-01] + O=C(c1cc(Cc2n[nH]c(=O)c3ccccc23)ccc1F)N1CCN(C(=O)C2CC2)CC1 [Olaparib] (partner 8 µM)
Key: 0.633
